- Tested on: Pseudomonas aeruginosa
- method: In vitro antibacterial activity against Pseudomonas aeruginosa IFO12689
- Type: functional
// returns false (0) unless MIC is strictly below 0.4 µg/mL, in which case true (1)

compound_smiles=Nc1nc(/C(=N/OCCSc2nnc(-c3cc(O)c(O)cn3)o2)C(=O)N[C@@H]2C(=O)N3C(C(=O)[O-])=C(CSc4nc5ccccc5s4)CS[C@H]23)cs1.[Na+] measured_target="Pseudomonas aeruginosa" qualitative_label="false (0)"
compound_smiles=CN(C)CC[n+]1ccc(SCC2=C(C(=O)[O-])N3C(=O)[C@@H]([N-]C(=O)/C(=N\OCCSc4nnc(-c5cc(O)c(O)cn5)o4)c4csc(N)n4)[C@H]3SC2)cc1.[Na+] measured_target="Pseudomonas aeruginosa" qualitative_label="false (0)"
compound_smiles=NC(=O)c1cc[n+](CC2=C(C(=O)[O-])N3C(=O)[C@@H]([N-]C(=O)/C(=N\OCCSc4nnc(-c5cc(O)c(O)cn5)o4)c4csc(N)n4)[C@H]3SC2)cc1.[Na+] measured_target="Pseudomonas aeruginosa" qualitative_label="false (0)"
compound_smiles=Nc1nc(/C(=N/OCCSc2nnc(-c3cc(O)c(O)cn3)o2)C(=O)N[C@@H]2C(=O)N3C(C(=O)[O-])=C(CSc4cnns4)CS[C@H]23)cs1.[Na+] measured_target="Pseudomonas aeruginosa" qualitative_label="true (1)"
compound_smiles=CC[n+]1ccc(SCC2=C(C(=O)[O-])N3C(=O)[C@@H]([N-]C(=O)/C(=N\OCCSc4nnc(-c5cc(O)c(O)cn5)o4)c4csc(N)n4)[C@H]3SC2)cc1.[Na+] measured_target="Pseudomonas aeruginosa" qualitative_label="false (0)"
compound_smiles=Nc1nc(/C(=N/OCCSc2nnc(-c3cc(O)c(O)cn3)o2)C(=O)N[C@@H]2C(=O)N3C(C(=O)[O-])=C(CSc4nnc(N)s4)CS[C@H]23)cs1.[Na+] measured_target="Pseudomonas aeruginosa" qualitative_label="true (1)"
compound_smiles=Nc1nc(/C(=N/OCCSc2nnc(-c3cc(O)c(O)cn3)o2)C(=O)[N-][C@@H]2C(=O)N3C(C(=O)[O-])=C(CSc4cc[n+](CCO)cc4)CS[C@H]23)cs1.[Na+] measured_target="Pseudomonas aeruginosa" qualitative_label="false (0)"
compound_smiles=CC(C)(O/N=C(\C(=O)N[C@@H]1C(=O)N2C(C(=O)[O-])=C(C[n+]3ccccc3)CS[C@H]12)c1csc(N)n1)C(=O)O measured_target="Pseudomonas aeruginosa" qualitative_label="false (0)"
